Tested on: MDA-MB-231
ASSAY_EXPLANATION: NCI tumour cell line growth inhibition, 48 h
Active and inactive are the calls of the source. Cut-off read from the data, not from the text of the source: active = GI50 up to about 1.1 µM and inactive = higher.
READOUT_NAME: GI50

{"COMPOUND": "O=C(N/N=C\\C=C\\c1ccc([N+](=O)[O-])o1)C(=O)N/N=C\\C=C\\c1ccc([N+](=O)[O-])o1", "SYSTEM": "MDA-MB-231", "READOUT_VALUE": "> 100 µM (inactive)"}
{"COMPOUND": "CCC1(O)C(=O)OCc2c1cc1n(c2=O)Cc2cc3c(N)cccc3nc2-1 (stereo not given)", "SYSTEM": "MDA-MB-231", "READOUT_VALUE": "2.1 µM (inactive)"}
{"COMPOUND": "C/C(=N\\O)c1cccc(Nc2nc3ccccc3c3occc23)c1", "SYSTEM": "MDA-MB-231", "READOUT_VALUE": "11.9 µM (inactive)"}
{"COMPOUND": "COc1cc2c(cc1Cl)[n+]([O-])c(C#N)c(N1CCN(c3ccc([N+](=O)[O-])cc3)CC1)[n+]2[O-]", "SYSTEM": "MDA-MB-231", "READOUT_VALUE": "41.8 µM (inactive)"}
{"COMPOUND": "CN(N)/N=N/c1[nH]cnc1C(N)=O", "SYSTEM": "MDA-MB-231", "READOUT_VALUE": "3.22 µM (inactive)"}

====

System: NCI-H23
ASSAY_EXPLANATION: NCI tumour cell line growth inhibition, 48 h
Active and inactive are the calls of the source. Rule as the data show it: active = GI50 up to about 1.1 µM and inactive = higher. Non-standard residues stand in square brackets, D forms with d. Residues, ends and D or L forms follow the SMILES beside them. Ava = NCCCCC(=O)O; Mpa = O=C(O)CCS

{"COMPOUND": "CC(=O)OCCn1c(Cc2ccc(C)cc2)nn(C(C)=O)c1=O", "GI50": "> 100 µM (inactive)"}
{"COMPOUND": "CCOC(=O)c1c(N2CCCC2)[nH]c(=O)c(C(c2ccc(OC)cc2)c2c(O)c(C(=O)OCC)c(N3CCCC3)[nH]c2=O)c1O", "GI50": "82 µM (inactive)"}
{"COMPOUND": "CCCCCCCCCCCCCCCCP(=O)(OC)OC", "GI50": "16.5 µM (inactive)"}
{"COMPOUND": "CC(NC(=O)CCS)C(=O)NC(C)C(=O)NC(Cc1c[nH]c2ccccc12)C(=O)NC(Cc1c[nH]cn1)C(=O)NC(CO)C(=O)NC(Cc1c[nH]c2ccccc12)C(=O)NCCCCC(=O)NC(C)C(=O)NC(CCC(N)=O)C(=O)NC(CCCCN)C(=O)NC(C)C(=O)NC(CCCNC(=N)N)C(=O)NC(CCCCN)C(N)=O (stereo not drawn) ([Mpa]AAWHSW[Ava]AQKARK-NH2; configuration not given here)", "GI50": "> 100 µM (inactive)"}
{"COMPOUND": "O=C(O)C1CCCCN1C(=O)Cc1c[nH]c2ccccc12 (stereo not drawn)", "GI50": "> 100 µM (inactive)"}
{"COMPOUND": "CCOC(=O)C1CCCN1C(=O)c1ccccc1Cl (stereo not drawn)", "GI50": "> 100 µM (inactive)"}
{"COMPOUND": "CC(C)=CCC/C(C)=C/COc1c2ccoc2cc2oc(=O)ccc12", "GI50": "27.4 µM (inactive)"}
{"COMPOUND": "C[C@]12CC[C@H]3[C@@H](CCC4=CC(=O)CC[C@@]43C)[C@@H]1CC[C@@H]2C(=O)COS(=O)(=O)c1ccc(Br)cc1", "GI50": "2.37 µM (inactive)"}
{"COMPOUND": "CC(Cn1c2c3ccccc3ccc2c2oc(=O)c3ccccc3c21)N(C)C (stereo not drawn)", "GI50": "> 100 µM (inactive)"}
{"COMPOUND": "O=C1CC(NC(=O)C(F)(F)F)c2c(Br)sc(N3CCNCC3)c21 (stereo not drawn)", "GI50": "> 100 µM (inactive)"}
{"COMPOUND": "O=[N+]([O-])c1cccc(C2=NN(c3ccccc3)C3c4ccccc4OCC23)c1 (stereo not drawn)", "GI50": "> 100 µM (inactive)"}
{"COMPOUND": "CN(C)/C=N/Cc1ccc2c(c1)OCO2", "GI50": "> 100 µM (inactive)"}
{"COMPOUND": "O=[N+]([O-])c1ccc(-c2ccc(/C=N/n3c(S)nnc3-c3ccc(Cl)cc3)o2)cc1", "GI50": "27.2 µM (inactive)"}
{"COMPOUND": "O=C(O)Cc1cc(F)ccc1C(=O)O", "GI50": "> 100 µM (inactive)"}
{"COMPOUND": "N#CCCN(CCC#N)c1ccc(/C=N\\c2nc(-c3ccccc3)cs2)cc1", "GI50": "> 100 µM (inactive)"}
{"COMPOUND": "CC(Nc1cc(=O)n(C)c(=O)[nH]1)c1ccccc1 (stereo not drawn)", "GI50": "> 100 µM (inactive)"}
{"COMPOUND": "COC(=O)C(NC(=O)C12CCC(C)(C(=O)O1)C2(C)C)c1cc(C(C)(C)C)c(O)c(C(C)(C)C)c1 (stereo not drawn)", "GI50": "> 100 µM (inactive)"}
{"COMPOUND": "CN(CCCN(C)CCc1ccc(Cl)c(Cl)c1)CCCN1CCCC1", "GI50": "3.31 µM (inactive)"}

====

The following compounds are shown together with reported GI50 values.
Tested on: MOLT-4
ASSAY_EXPLANATION: NCI tumour cell line growth inhibition, 48 h
Active and inactive are the calls of the source. Rule as the data show it: active = GI50 up to about 1.1 µM and inactive = higher.

{"COMPOUND": "Cc1nn(C(=O)c2ccncc2)c2c1C(c1ccccc1[N+](=O)[O-])SC(=N)N2 (stereo not given)", "GI50": "> 10 µM (inactive)"}
{"COMPOUND": "CC[C@H](C)[C@H](NC(=O)N(CCC#N)CCN(CCN(C(=O)N[C@@H](Cc1ccccc1)C(=O)OC)c1ccccc1)C(=O)N[C@H](C(=O)OC)C(C)C)C(=O)OC", "GI50": "4.57 µM (inactive)"}
{"COMPOUND": "CC(C)(C)COC(=O)C(C)(C)NC(=O)C(CC(=O)OCc1ccccc1)NC(=O)OCc1ccccc1 (stereo not given)", "GI50": "17.6 µM (inactive)"}
{"COMPOUND": "CC1=C(C(=O)NCCCN(CCO)CCO)CC(C(=O)NCCCN(CCO)CCO)=C(C)N1", "GI50": "> 100 µM (inactive)"}
{"COMPOUND": "[O-][n+]1onc(-c2ccccc2)c1-c1no[n+]([O-])c1-c1c(-c2ccccc2)no[n+]1[O-]", "GI50": "3.56 µM (inactive)"}
{"COMPOUND": "S=C1SC(c2ccc(Cl)cc2)(c2ccc(Cl)cc2)c2ccccc21", "GI50": "37.2 µM (inactive)"}
{"COMPOUND": "O=c1ccc2ccc(O)c3c4c(O)ccc5ccc(=O)c(c1c23)c54", "GI50": "2.11 µM (inactive)"}
{"COMPOUND": "O=C1c2ccccc2N2OC3(N4CCCC4)CCCCC3C12c1ccccc1 (stereo not given)", "GI50": "35.7 µM (inactive)"}
{"COMPOUND": "Oc1cc(F)cc2cccnc12", "GI50": "0.206 µM (active)"}
{"COMPOUND": "CCOc1ccc(N2C(=O)C3c4[nH]c5ccccc5c4C4CCC(C(C)(C)C)CC4C3C2=O)cc1 (stereo not given)", "GI50": "> 100 µM (inactive)"}
{"COMPOUND": "C[C@H](c1ccccc1)n1c(N)c(-c2nc3ccccc3s2)c2ccc([N+](=O)[O-])cc2c1=O", "GI50": "2.32 µM (inactive)"}
{"COMPOUND": "CC1CCCC(C(=O)CC2CC(=O)NC(=O)C2)C1=O (stereo not given)", "GI50": "> 100 µM (inactive)"}
{"COMPOUND": "COc1ccc(/C=C2\\CCCCC2=O)cc1", "GI50": "> 100 µM (inactive)"}
{"COMPOUND": "Oc1[nH]c(Nc2cc(Cl)cc(Cl)c2)nc2ncnc1-2", "GI50": "> 75 µM (inactive)"}
{"COMPOUND": "COc1ccccc1/C=C/C1=NN(c2cccc(S(=O)(=O)O)c2)C2(C1)C(Cl)C(=O)N2c1nc2ccccc2s1 (stereo not given)", "GI50": "34 µM (inactive)"}
{"COMPOUND": "CN1CCc2ccccc2C(C(=O)c2ccc3c(c2)OCO3)C1=O (stereo not given)", "GI50": "> 100 µM (inactive)"}
{"COMPOUND": "O=C1NC(=O)C(COCc2ccccc2)C2=C1SCCC2 (stereo not given)", "GI50": "> 100 µM (inactive)"}
{"COMPOUND": "O=C(CSc1nnc(Cc2ccccc2)o1)Nc1ccc(Cl)cc1[N+](=O)[O-]", "GI50": "18.9 µM (inactive)"}
{"COMPOUND": "C=CCc1cccc(C(=O)/C=C(O)/C=C/c2ccccc2Cl)c1O", "GI50": "3.96 µM (inactive)"}
{"COMPOUND": "N=C(N)N/N=C/c1c(-c2cccc([N+](=O)[O-])c2)nc2n1CCS2", "GI50": "11.4 µM (inactive)"}
